Below: a set of entries, each annotated with reported log10 of EC50.
- Tested System: human SIRPα v2 expressed on cells (CHOK1 stable line KYinno KC-1720) (human) (UniProt P78324)
- Experiment Summary: FACS, CHOK1-hSIRPα v2 cells
Value Type: log10 of EC50 (log10 of the value in nM)

{"Binder": "073c (antibody, V domains shown) VH: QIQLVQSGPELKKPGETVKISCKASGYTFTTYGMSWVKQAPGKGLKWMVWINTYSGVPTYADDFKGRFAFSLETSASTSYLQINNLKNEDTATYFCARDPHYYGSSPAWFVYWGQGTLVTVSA VL: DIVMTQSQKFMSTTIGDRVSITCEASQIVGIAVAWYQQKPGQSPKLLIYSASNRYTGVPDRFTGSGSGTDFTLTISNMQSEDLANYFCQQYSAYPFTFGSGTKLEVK", "log10 of EC50": 0.33}
{"Binder": "025c (antibody, V domains shown) VH: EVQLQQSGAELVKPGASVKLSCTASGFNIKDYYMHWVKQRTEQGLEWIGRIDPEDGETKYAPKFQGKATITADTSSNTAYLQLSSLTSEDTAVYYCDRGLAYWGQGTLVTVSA VL: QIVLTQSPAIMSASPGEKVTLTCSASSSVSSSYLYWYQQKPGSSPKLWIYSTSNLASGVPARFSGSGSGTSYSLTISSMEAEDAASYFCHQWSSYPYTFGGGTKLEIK", "log10 of EC50": 0.13}
{"Binder": "059c (antibody, V domains shown) VH: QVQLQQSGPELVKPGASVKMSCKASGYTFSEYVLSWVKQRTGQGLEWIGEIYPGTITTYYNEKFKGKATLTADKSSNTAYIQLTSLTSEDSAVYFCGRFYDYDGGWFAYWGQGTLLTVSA VL: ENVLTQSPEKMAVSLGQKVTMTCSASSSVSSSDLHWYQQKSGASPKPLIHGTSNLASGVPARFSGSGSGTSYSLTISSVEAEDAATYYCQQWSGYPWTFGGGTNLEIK", "log10 of EC50": 1.08}
{"Binder": "005c (antibody, V domains shown) VH: EVKLVESGGGLVQPGGSLSLSCAASGFTFTDYYMSWVRQPPGKALEWLGFIKNEANGYTTESSASVKGRFTISRDNSQSILYLQMNALRAEDSATYYCARYDYYGSNYNWYFDAWGTGTTVTVSS VL: DIVMTQSQKFMSPSVGDRVSITCKASQNVRTAVAWYQQKPGQSPKVLIHLASKRHTGVPDRFTGSGSGTDFTLTISNVQSEDLADYFCLQHWIHPLTFGAGTKLELK", "log10 of EC50": 0.74}
{"Binder": "hu1H9G4 (antibody, V domains shown) VH: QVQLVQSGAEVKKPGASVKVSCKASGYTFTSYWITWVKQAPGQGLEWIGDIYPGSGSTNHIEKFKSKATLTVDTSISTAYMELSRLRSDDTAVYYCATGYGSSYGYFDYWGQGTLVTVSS VL: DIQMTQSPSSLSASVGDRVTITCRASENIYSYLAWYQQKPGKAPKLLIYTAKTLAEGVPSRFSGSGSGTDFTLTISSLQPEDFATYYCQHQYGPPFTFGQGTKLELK", "log10 of EC50": -0.07}
{"Binder": "015c (antibody, V domains shown) VH: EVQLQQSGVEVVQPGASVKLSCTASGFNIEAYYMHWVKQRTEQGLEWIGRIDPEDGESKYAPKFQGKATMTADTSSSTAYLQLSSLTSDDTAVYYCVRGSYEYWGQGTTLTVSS VL: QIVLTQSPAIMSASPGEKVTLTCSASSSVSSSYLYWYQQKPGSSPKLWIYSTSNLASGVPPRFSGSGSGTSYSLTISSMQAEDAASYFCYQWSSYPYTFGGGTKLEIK", "log10 of EC50": 0.20}
{"Binder": "042c (antibody, V domains shown) VH: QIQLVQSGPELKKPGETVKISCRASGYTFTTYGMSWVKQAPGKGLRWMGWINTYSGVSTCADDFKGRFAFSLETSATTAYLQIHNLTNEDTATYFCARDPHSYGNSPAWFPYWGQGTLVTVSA VL: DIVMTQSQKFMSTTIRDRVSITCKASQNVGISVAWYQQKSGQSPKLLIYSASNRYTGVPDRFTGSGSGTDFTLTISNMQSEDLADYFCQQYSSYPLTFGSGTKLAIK", "log10 of EC50": 0.62}
{"Binder": "071c (antibody, V domains shown) VH: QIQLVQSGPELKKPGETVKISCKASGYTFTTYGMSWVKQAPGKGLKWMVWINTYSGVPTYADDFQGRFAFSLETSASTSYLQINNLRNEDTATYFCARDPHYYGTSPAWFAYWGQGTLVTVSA VL: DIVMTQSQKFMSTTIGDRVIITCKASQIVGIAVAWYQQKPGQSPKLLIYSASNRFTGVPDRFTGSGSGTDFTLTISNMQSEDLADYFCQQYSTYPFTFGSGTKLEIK", "log10 of EC50": 0.52}
